study-target: T1, EsCas13d, nuclease-dead (Eubacterium siraeum, UniProt B0MS50, R295A;H300A;R849A;H854A)
T1 sequence: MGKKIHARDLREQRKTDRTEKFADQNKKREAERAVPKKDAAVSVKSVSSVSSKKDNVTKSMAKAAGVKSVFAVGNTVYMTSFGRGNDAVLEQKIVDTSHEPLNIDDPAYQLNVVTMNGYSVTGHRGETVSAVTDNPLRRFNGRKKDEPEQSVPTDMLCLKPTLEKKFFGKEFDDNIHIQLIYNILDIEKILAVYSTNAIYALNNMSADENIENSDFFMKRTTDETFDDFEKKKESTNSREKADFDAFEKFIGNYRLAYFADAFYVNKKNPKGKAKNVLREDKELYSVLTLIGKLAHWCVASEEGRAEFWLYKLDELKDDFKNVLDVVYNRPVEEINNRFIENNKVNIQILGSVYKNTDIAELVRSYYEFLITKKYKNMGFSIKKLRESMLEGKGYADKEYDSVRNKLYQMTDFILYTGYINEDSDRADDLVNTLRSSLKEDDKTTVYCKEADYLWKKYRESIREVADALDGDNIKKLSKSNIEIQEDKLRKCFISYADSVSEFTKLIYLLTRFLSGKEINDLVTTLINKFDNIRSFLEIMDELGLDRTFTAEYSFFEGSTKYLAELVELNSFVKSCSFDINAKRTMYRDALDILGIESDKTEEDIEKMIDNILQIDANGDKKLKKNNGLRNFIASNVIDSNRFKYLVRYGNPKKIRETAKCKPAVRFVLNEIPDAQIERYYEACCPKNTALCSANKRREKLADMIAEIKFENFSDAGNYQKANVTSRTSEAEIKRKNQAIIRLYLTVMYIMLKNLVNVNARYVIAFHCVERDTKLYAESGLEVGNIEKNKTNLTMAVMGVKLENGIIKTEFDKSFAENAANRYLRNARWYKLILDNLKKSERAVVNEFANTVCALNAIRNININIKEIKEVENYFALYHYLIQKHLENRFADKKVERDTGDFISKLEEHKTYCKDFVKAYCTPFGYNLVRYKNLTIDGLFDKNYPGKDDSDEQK
test-details: crRNA (strand 1, pre-loaded); Mg2+; 40 mM Tris-HCl pH 7.5, 150 mM NaCl, 6 mM MgCl2, 1 mM DTT, 0.1% Tween-20, 0.2 mg/ml BSA; 25 C; 10 min per concentration, then washed
experimental-conditions: tags: His6-TwinStrep-SUMO cleaved; N-terminal SNAP kept (SNAP-Surface 488); label: 3' end held by stalled T7 RNA polymerase
Please note: Kd exactly at 0.05 µM is NOT MET. Only values below 0.05 µM get MET.

Some solved entries appear below for comparison.
binder: target 2 MT 5'PFS GUC 3'PFS CGG (mixed) RNA 1: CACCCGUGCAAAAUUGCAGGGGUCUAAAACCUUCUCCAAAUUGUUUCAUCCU RNA 2: GGGAAUGGAUCCACAUCUACGAAUUCGUCAGGAUGAAACAAUUUGGAGAAGCGGAGAUCGGAAGAGCACACGU
group-label: MET
//
binder: target 1 A9U,A16G (mixed) RNA 1: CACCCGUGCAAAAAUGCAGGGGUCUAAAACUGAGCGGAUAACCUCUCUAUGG RNA 2: GGGAAUGGAUCCACAUCUACGAAUUCGUACCAUAGGGAGGUUUUCCGCUCACCGAGAUCGGAAGAGCACACGU
group-label: NOT MET
//
binder: target 1 insU 3' of 21,insA 3' of 10 (mixed) RNA 1: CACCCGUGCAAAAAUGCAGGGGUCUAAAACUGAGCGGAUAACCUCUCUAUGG RNA 2: GGGAAUGGAUCCACAUCUACGAAUUCGUACCUAUAGAGAGGUUAAUCCGCUCACCGAGAUCGGAAGAGCACACGU
group-label: MET
//
binder: target 1 del3,del13 (mixed) RNA 1: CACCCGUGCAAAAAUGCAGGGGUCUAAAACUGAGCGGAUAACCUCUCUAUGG RNA 2: GGGAAUGGAUCCACAUCUACGAAUUCGUACCAUAGAGAGUUAUCCGCCACCGAGAUCGGAAGAGCACACGU
group-label: MET

Incoming: # strict comparison: is reported Kd < 0.05 µM? input = target 2 MT 5'PFS CGU 3'PFS CGC (mixed) RNA 1: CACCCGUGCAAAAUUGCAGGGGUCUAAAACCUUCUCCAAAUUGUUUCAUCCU RNA 2: GGGAAUGGAUCCACAUCUACGAAUUCCGUAGGAUGAAACAAUUUGGAGAAGCGCAGAUCGGAAGAGCACACGU
Outgoing: MET

Incoming: What do you have for target 1 insA 3' of 15,insC 3' of 8 (mixed) RNA 1: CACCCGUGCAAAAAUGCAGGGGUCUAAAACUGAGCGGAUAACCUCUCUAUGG RNA 2: GGGAAUGGAUCCACAUCUACGAAUUCGUACCAUAGAGAAGGUUAUCCCGCUCACCGAGAUCGGAAGAGCACACGU ?
Outgoing: MET

Incoming: What do you have for target 1 C22G (mixed) RNA 1: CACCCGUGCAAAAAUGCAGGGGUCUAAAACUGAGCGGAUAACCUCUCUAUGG RNA 2: GGGAAUGGAUCCACAUCUACGAAUUCGUAGCAUAGAGAGGUUAUCCGCUCACCGAGAUCGGAAGAGCACACGU ?
Outgoing: NOT MET
